Molecular target: human LTA4 hydrolase (Homo sapiens)
Sequence (P09960 whole entry): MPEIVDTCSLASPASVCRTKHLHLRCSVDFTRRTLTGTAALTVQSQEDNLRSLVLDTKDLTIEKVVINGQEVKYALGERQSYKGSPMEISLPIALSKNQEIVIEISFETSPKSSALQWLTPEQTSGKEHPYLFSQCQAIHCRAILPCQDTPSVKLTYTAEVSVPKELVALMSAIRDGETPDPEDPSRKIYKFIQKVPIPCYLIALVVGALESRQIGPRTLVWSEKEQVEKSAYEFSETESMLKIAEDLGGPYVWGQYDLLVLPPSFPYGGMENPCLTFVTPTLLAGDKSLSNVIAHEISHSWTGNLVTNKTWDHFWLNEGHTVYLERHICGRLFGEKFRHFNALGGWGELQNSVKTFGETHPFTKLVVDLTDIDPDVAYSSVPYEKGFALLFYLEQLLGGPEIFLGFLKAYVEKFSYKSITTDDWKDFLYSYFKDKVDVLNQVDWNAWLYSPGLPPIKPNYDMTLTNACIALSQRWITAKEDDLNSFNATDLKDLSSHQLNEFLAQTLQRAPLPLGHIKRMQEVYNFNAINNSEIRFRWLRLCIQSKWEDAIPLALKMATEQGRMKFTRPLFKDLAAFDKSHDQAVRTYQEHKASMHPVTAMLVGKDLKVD
Experiment: LTA4H Enzyme assay (cleavage of Arg-AMC, fluorescence)
Format: biochemical
Conditions: LTA4H Enzyme 1 nM, Arg-AMC substrate 50 μM, room temperature 1 h, fluorescence; read-out: IC50 values of LTA4H Enzyme assay
pIC50: −log10 of the molar value. Counter-ions that a name gives are not always drawn.
Binary call on pIC50: Yes from 9 upward, No beneath that.

Previously resolved entries follow.
| molecule | categoryLabel |
| --- | --- |
| CC1(C)CCN(Cc2ccc(C3COc4ccccc4O3)cc2)CC1 (racemic) [Example 3] | No |
| CC(=O)N(C)C1CCN(Cc2ccc([C@H]3COc4ccccc4O3)cc2)C1 (stereo partly drawn) [Example 83] | Yes |
| CC[C@@H](C)NCc1ccc(C2COc3ccccc3O2)cc1 (mixture of isomers) [Example 24] | No |
| CC(C)(O)C(=O)NC1CCN(Cc2ccc([C@H]3COc4cccnc4O3)cc2)CC1 [Example 221] | Yes |
| CC(=O)N[C@H]1C[C@H]2CC[C@@H](C1)N2Cc1ccc([C@H]2COc3cccnc3O2)cc1 [Example 278] | Yes |
| CC(C)(C(=O)O)C1CCN(Cc2ccc([C@H]3COc4ccccc4O3)cc2)CC1 [Example 229, formate salt] | No |
| COC1CCCN(Cc2ccc([C@H]3COc4cccnc4O3)cc2)C1 (stereo partly drawn) [Example 158] | Yes |
| O=C1CCCN1Cc1ccc(C2COc3cccnc3O2)cc1 (stereo not drawn) [Example 208] | No |

Answer whether pIC50 of N#Cc1cnc2n1CCN(Cc1ccc([C@H]3COc4cccnc4O3)cc1)C2 [Example 249] is greater than or equal to 9.
Yes

Answer whether pIC50 of NC1CCN(Cc2ccc([C@H]3COc4ccccc4O3)cc2)CC1 [Example 217] is greater than or equal to 9.
No

Answer whether pIC50 of OC(C1CCN(Cc2ccc([C@H]3COc4ccccc4O3)cc2)CC1)(C(F)(F)F)C(F)(F)F [Example 22] is greater than or equal to 9.
No

* * *

Molecular target: UniProt P09960
Experiment: LTA4H Enzyme assay (cleavage of Arg-AMC, fluorescence)
Format: biochemical
Details: LTA4H Enzyme 1 nM, Arg-AMC substrate 50 μM, room temperature 1 h, fluorescence; read-out: IC50 values of LTA4H Enzyme assay
valueKind: IC50
Answer format reminder: number followed by unit.

Example entries begin here.
| molecule | IC50 |
| --- | --- |
| NC(=O)N1CCCC12CCN(Cc1ccc([C@H]3COc4ccccc4O3)cc1)C2 (some centres unmarked) | 100 pM |
| O=C1NCCCC12CCN(Cc1ccc([C@H]3COc4ccccc4O3)cc1)CC2 | 820 pM |
| O=S1(=O)CCCN1C1CCN(Cc2ccc([C@H]3COc4ccccc4O3)cc2)CC1 | 130 pM |
| C[C@H]1CN(Cc2ccc([C@H]3COc4ccccc4O3)cc2)CC[C@H]1C(=O)O | 490 pM |
| CN(Cc1ccc([C@H]2COc3cccnc3O2)cc1)C1CCS(=O)(=O)C1 (some centres unmarked) | 2400 pM |

For the molecule CN[C@H](C)C(=O)NC1CCN(Cc2ccc([C@H]3COc4cccnc4O3)cc2)CC1 , report IC50.
2500 pM

For the molecule O=C(O)c1ccc(C2CCN(Cc3ccc([C@H]4COc5cccnc5O4)cc3)CC2)cc1 , report IC50.
80 pM

For the molecule O=C(C1CCN(Cc2ccc([C@H]3COc4cccnc4O3)cc2)CC1)N1CC(O)C1 , report IC50.
350 pM

For the molecule O=C(O)C[C@@H]1CCCN(Cc2ccc([C@H]3COc4ccccc4O3)cc2)C1 , report IC50.
480 pM
